Every entry's value here was drawn from ChEMBL document CHEMBL1138445.

experiment: Metabolic stability in human liver microsomes assessed as half life; type: ADME, Microsome
READOUT TYPE: half-life

{"columns": ["MOLECULE", "READOUT TYPE", "RESULT"],
 "data": [
  ["O[C@@H](CN1c2cccc(-c3cccc(OC(F)(F)F)c3)c2CC[C@@H]1c1cccc(OC(F)(F)F)c1)C(F)(F)F [TETRAHYDROQUINOLINE A]", "half-life", "> 128 min"]
]}

---

biological target: Cholesteryl ester transfer protein (Homo sapiens) (UniProt P11597); test: Inhibition of human plasma derived CETP relative to control; parameters: concentration or dose not given beside the values; conditions: concentration not given here
Sequence (P11597 whole entry): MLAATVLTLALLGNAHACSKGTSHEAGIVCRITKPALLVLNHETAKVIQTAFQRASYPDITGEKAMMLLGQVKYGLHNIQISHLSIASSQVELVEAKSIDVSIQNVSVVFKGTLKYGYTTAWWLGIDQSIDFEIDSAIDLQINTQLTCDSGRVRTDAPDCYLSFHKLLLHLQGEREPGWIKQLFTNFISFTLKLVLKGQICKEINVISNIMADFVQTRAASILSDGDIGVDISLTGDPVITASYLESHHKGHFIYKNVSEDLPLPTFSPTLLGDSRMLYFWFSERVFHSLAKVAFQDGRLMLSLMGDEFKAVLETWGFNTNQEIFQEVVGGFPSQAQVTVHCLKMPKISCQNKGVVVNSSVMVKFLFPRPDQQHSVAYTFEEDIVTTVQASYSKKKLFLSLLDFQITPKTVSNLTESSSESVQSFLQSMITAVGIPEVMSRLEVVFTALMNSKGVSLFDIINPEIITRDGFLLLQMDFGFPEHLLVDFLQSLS
Each record here notes measured inhibition.
READOUT TYPE: inhibition (%)

{"columns": ["COMPOUND", "MEASURED TARGET", "RECORDED NUMBER"],
 "data": [
  ["O[C@H](CN1c2cccc(-c3cccc(OC(F)(F)F)c3)c2CC[C@H]1c1cccc(OC(F)(F)F)c1)C(F)(F)F", "Cholesteryl ester transfer protein (Homo sapiens) (UniProt P11597)", 46],
  ["OC(CN1c2cccc(-c3cccc(OC(F)(F)F)c3)c2CCC1c1ccccc1)C(F)(F)F (single isomer, unassigned; diastereomer 1)", "Cholesteryl ester transfer protein (Homo sapiens) (UniProt P11597)", 21],
  ["OC(CN1c2cccc(-c3cccc(F)c3)c2CCC1c1cccc(OC(F)(F)C(F)F)c1)C(F)(F)F (single isomer, unassigned; diastereomer 1)", "Cholesteryl ester transfer protein (Homo sapiens) (UniProt P11597)", 93],
  ["OC(CN1c2cccc(-c3ccc(OC(F)(F)F)cc3)c2CCC1c1cccc(OC(F)(F)C(F)F)c1)C(F)(F)F (single isomer, unassigned; diastereomer 1)", "Cholesteryl ester transfer protein (Homo sapiens) (UniProt P11597)", 85],
  ["OC(CN1c2cccc(-c3cccc(Cl)c3Cl)c2CCC1c1cccc(OC(F)(F)C(F)F)c1)C(F)(F)F (single isomer, unassigned; diastereomer 2)", "Cholesteryl ester transfer protein (Homo sapiens) (UniProt P11597)", 86],
  ["OC(CN1c2cccc(-c3cccc(Cl)c3Cl)c2CCC1c1cccc(OC(F)(F)C(F)F)c1)C(F)(F)F (stereo in doubt; 17)", "Cholesteryl ester transfer protein (Homo sapiens) (UniProt P11597)", 67]
]}

---

assay: Half life in Sprague-Dawley rat at 10 mg/kg, po; assay type: ADME, organism-based; parameters: dose 10 mg/kg, route oral; settings: in vivo

{"columns": ["MOLECULE", "DISPLAY UNIT", "half-life"],
 "data": [
  ["O[C@@H](CN1c2cccc(-c3cccc(OC(F)(F)F)c3)c2CC[C@@H]1c1cccc(OC(F)(F)F)c1)C(F)(F)F [TETRAHYDROQUINOLINE A]", "h", 28]
]}

---

biological target: Cholesteryl ester transfer protein (Homo sapiens); experiment: Inhibition of human plasma derived CETP relative to control; design: concentration or dose not given beside the values; details: concentration not given here

{"columns": ["COMPOUND", "inhibition, %"],
 "data": [
  ["OC(CN1c2cccc(-c3cccc(OC(F)(F)F)c3)c2CCC1C1CCCCC1)C(F)(F)F (single isomer, unassigned; form 2)", 13],
  ["OC(CF)CN1c2cccc(-c3cccc(OC(F)(F)F)c3)c2CCC1c1cccc(OC(F)(F)F)c1 (single isomer, unassigned; diastereomer 1)", 70],
  ["OC(CF)CN1c2cccc(-c3cccc(OC(F)(F)F)c3)c2CCC1c1cccc(OC(F)(F)F)c1 (single isomer, unassigned; diastereomer 2)", 13],
  ["OC(CN1c2cccc(-c3cccc(OC(F)(F)F)c3)c2CCC1c1cccc(OC(F)(F)F)c1)C(F)(F)F (stereo in doubt; 52)", 68],
  ["OC(CN1c2cccc(-c3cccc(OC(F)(F)F)c3)c2CCC1c1cccc(OC(F)(F)C(F)F)c1)C(F)(F)F (single isomer, unassigned; 19)", 100],
  ["CC(C)Oc1cccc(-c2cccc3c2CCC(c2cccc(OC(F)(F)C(F)F)c2)N3CC(O)C(F)(F)F)c1 (stereo unspecified)", 55]
]}
